test-target: T1, murine mesothelin (recombinant) (murine, UniProt Q61468 298-600, limits assumed)
T1 construct: Covalently immobilized on the Biacore chip
T1 sequence (looked up): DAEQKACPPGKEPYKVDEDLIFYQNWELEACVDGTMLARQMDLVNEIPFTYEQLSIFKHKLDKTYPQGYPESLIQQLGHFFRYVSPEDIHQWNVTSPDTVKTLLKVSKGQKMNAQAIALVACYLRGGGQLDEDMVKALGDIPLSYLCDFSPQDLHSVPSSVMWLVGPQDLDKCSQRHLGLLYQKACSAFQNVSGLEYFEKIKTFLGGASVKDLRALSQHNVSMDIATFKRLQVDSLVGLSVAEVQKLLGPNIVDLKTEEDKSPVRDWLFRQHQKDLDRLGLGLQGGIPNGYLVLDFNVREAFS
experiment: SPR (Biacore 3000), Fab on covalently immobilized murine mesothelin
Protocol: Shown in Table 5 are results of Biacore and ELISA studies showing cross-reactivity of antibodies of the invention to murine mesothelin. The kinetic constants kₒₙ and koff were determined with serial dilutions of the respective purified Fab fragment binding to covalently immobilized human or murine mesothelin using the Biacore 3000 instrument (Biacore, Uppsala, Sweden). Covalent antigen immobilization was achieved by a standard EDC-NHS coupling procedure. […]
property-name: koff
Answer format: number, then unit.

Bench note: what koff did MOR06626 Fab (Fab, V domains shown, Purified Fab) VH: QVQLVQSGAEVKKPGASVKVSCKASGYTFTGNYINWVRQAPGQGLEWMGIINPTKGWTLYAQKFQGRVTMTRDTSISTAYMELSSLRSEDTAVYYCARWHHGTWIFDYWGQGTLVTVSS VL: DIVLTQPPSVSGAPGQRVTISCSGSSSNIGSNYVSWYQQLPGTAPKLLIYNDNQRPSGVPDRFSGSKSGTSASLAITGLQSEDEADYYCSTYDRRTFSVFGGGTKLTVLG show? 0.0098 s⁻¹

The origin of these recorded values is patent US20180258181A1.
